Target: Leucine--tRNA ligase [A132I,E138V,K510A,I952T] (Candida albicans (strain WO-1), UniProt A0A1D8PS12, A132I/E138V/I952T/K510A)
Sequence (A0A1D8PS12 whole entry A132I/E138V/K510A/I952T): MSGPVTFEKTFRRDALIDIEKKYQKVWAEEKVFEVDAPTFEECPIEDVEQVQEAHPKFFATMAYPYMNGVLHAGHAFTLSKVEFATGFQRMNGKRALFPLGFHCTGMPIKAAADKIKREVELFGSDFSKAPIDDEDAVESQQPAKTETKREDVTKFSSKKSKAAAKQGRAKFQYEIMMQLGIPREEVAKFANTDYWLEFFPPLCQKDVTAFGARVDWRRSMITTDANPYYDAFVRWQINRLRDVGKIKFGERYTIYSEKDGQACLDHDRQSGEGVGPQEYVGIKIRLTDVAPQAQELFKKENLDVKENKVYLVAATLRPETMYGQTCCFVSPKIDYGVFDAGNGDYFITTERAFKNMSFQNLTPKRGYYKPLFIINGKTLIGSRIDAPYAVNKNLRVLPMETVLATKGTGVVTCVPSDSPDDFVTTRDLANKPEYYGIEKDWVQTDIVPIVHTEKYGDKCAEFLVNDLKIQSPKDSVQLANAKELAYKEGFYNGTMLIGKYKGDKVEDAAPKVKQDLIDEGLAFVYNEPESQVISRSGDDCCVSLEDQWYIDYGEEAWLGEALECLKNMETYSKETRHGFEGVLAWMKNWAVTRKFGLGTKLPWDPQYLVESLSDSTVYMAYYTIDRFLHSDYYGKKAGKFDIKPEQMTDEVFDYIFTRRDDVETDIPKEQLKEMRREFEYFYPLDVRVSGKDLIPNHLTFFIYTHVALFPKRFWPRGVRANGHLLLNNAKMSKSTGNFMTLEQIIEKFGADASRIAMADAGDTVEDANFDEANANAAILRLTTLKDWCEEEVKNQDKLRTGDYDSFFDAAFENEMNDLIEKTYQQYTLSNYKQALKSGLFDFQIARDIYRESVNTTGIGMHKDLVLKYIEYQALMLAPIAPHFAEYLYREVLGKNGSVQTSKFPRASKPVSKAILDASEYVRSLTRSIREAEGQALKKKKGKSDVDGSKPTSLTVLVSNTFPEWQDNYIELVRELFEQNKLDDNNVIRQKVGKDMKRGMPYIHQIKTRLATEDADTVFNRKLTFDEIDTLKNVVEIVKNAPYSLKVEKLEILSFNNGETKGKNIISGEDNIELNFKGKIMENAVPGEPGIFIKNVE
Test: Isothermal Titration Calorimetry (ITC)
Conditions: pH 8; 25 °C
Protocol: ITC was performed using LeuRS CP1 domain wild-type, K510E mutant, or K510A mutant against AN2690-AMP at 25 °C by an ITC200 system (MicroCal, GE Healthcare). […] The heat generated after each ligand injection was measured base on the integral of the calorimetric signal. The resultant binding isotherms were analyzed by a nonlinear least-squares fit of the experimental data to a single site model using Microcal Origin 7.0 software. […]
ASSAY_READOUT: Kd
The reply should consist of the numeric value with the unit placed after it.

Which Kd is listed for CC[C@H]1O[C@@H](n2cnc3c(N)ncnc32)[C@H]2O[B-]3(OCc4cc(F)ccc43)OC12 (stereo partly specified) ? 46 µM

* * *

biological target: Leucine--tRNA ligase [A132I,E138V,K510E,I952T] (Candida albicans (strain WO-1), UniProt A0A1D8PS12, A132I/E138V/I952T/K510E); assay: Isothermal Titration Calorimetry (ITC); details: pH 8; 25 °C
Sequence (A0A1D8PS12 whole entry A132I/E138V/K510E/I952T): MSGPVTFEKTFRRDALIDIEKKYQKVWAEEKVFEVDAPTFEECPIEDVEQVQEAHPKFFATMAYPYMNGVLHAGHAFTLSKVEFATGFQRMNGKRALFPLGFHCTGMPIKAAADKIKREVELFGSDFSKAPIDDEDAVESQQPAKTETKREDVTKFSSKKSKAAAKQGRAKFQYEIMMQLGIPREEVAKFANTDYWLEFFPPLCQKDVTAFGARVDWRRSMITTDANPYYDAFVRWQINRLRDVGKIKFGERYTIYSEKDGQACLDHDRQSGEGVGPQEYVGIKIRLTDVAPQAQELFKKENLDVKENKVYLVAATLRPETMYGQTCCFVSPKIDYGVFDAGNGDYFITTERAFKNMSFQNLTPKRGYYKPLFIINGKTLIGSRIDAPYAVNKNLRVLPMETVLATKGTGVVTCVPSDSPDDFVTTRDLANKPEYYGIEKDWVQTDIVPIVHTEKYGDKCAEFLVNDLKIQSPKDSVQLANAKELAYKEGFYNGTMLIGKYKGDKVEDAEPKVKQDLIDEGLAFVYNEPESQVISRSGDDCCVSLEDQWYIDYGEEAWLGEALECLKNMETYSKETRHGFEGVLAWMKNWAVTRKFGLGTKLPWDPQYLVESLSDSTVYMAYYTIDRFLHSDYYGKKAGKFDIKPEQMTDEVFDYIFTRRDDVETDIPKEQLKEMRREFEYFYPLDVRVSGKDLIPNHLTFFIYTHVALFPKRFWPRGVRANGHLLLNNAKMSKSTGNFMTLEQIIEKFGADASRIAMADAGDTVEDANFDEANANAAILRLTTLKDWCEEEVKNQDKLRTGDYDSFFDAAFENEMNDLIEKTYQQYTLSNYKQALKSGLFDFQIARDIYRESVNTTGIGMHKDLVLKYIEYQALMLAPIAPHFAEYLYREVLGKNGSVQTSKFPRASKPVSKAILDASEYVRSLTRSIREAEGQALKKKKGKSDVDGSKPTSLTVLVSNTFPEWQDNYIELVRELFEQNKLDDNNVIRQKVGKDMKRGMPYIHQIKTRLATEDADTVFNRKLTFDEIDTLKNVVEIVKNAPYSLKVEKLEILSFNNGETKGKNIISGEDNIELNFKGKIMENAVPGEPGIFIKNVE
ASSAY_READOUT: pKd
As a rule, pKd stands for the negative log10 of the concentration, concentration in M.

Which pKd is listed for CC[C@H]1O[C@@H](n2cnc3c(N)ncnc32)[C@H]2O[B-]3(OCc4cc(F)ccc43)OC12 (stereo partly specified) ? 4.68
